Tested on: Reduced glutathione in salivary gland cell clusters (SGm)
Experiment: Glutathione assay in salivary gland tissue chip, 4 days post-radiation (15 Gy); also first screen of Selleck library at 100 μM
Type: cell-based, mouse
Settings: first screen of Selleck library at 100 μM, 15 Gy, 4 days post-radiation
Where a name gives a salt, the structure may show the parent alone.
reported_endpoint: Glutathione normalized mean intensity
Answers are plain numbers.

Check out these entries, answers already filled in.
{"molecule": "O=C(Nc1cccc2c(=O)cc(-c3nnn[nH]3)oc12)c1ccc(OCCCCc2ccccc2)cc1 [Pranlukast]", "reported_endpoint": "Glutathione normalized mean intensity", "endpoint_value": 0.9284}
{"molecule": "CCOC(=O)[C@H](CCc1ccccc1)N[C@@H](C)C(=O)N1[C@H](C(=O)O)C[C@@H]2CCC[C@@H]21 [Ramipril (Altace)]", "reported_endpoint": "Glutathione normalized mean intensity", "endpoint_value": 0.7145}
{"molecule": "c1ccc([C@H]2CN3CCSC3=N2)cc1 [Levamisole Hydrochloride (Ergamisol)]", "reported_endpoint": "Glutathione normalized mean intensity", "endpoint_value": 0.8181}
{"molecule": "COc1c2occc2cc2ccc(=O)oc12 [Methoxsalen (Oxsoralen)]", "reported_endpoint": "Glutathione normalized mean intensity", "endpoint_value": 0.6397}

Value sought for every listed molecule: Glutathione normalized mean intensity.
1. CCCc1cc(C(N)=S)ccn1 [Protionamide (Prothionamide)]
2. CCC1(c2ccccc2)C(=O)NCNC1=O [Primidone (Mysoline)]

[0.6328, 0.8725]

Value sought for every listed molecule: Glutathione normalized mean intensity.
1. Clc1ccc(C(Cn2ccnc2)OCc2ccsc2Cl)c(Cl)c1 (stereo not drawn) [Tioconazole]
2. CCOC(=O)C(C)(C)Oc1ccc(Cl)cc1 [Clofibrate (Atromid-S)]
3. O=c1[nH]c(=O)n([C@H]2C[C@H](O)[C@@H](CO)O2)cc1C(F)(F)F [Trifluridine (Viroptic)]
4. Nc1ncnc2c1ncn2[C@@H]1O[C@H](CO)[C@@H](O)[C@@H]1O [Vidarabine (Vira-A)]
5. C[C@@](Cc1ccc(O)c(O)c1)(NN)C(=O)O [Carbidopa]
6. C[C@@H]1[C@H](O)[C@@H](C)/C=C/C=C/CC/C=C/C=C/C=C/C=C/C(O[C@H]2O[C@H](C)[C@@H](O)[C@H](N)[C@@H]2O)CC2O[C@](O)(CC(O)C(O)CCC(O)CC(O)CC(O)CC(=O)O[C@H]1C)CC(O)C2C(=O)O (stereo partly drawn) [Nystatin (Mycostatin)]
7. CC(=O)OCC(=O)NCCCOc1cccc(CN2CCCCC2)c1 [Roxatidine acetate HCl]
8. c1ccc(-c2ccc(C(c3ccccc3)n3ccnc3)cc2)cc1 (stereo not drawn) [Bifonazole]

1: 0.6333; 2: 1.009; 3: 0.7468; 4: 0.3742; 5: 0.5325; 6: 0.3498; 7: 0.4245; 8: 0.6115

Value sought for every listed molecule: Glutathione normalized mean intensity.
1. CC(C)n1c(/C=C/[C@H](O)C[C@H](O)CC(=O)O)c(-c2ccc(F)cc2)c2ccccc21 (racemic) [Fluvastatin sodium (Lescol)]
2. CCCOc1ccc2nc(NC(=O)OC)[nH]c2c1 [Oxibendazole]
3. O=C([O-])c1cc(=O)c2c(OCC(O)COc3cccc4oc(C(=O)[O-])cc(=O)c34)cccc2o1.[Na+].[Na+] [Disodium Cromoglycate]

[0.5791, 0.747, 0.6798]
